test system: MDA-MB-231; assay: Antiproliferative activity against human MDA-MB-231 cells at 10 uM after 72 hrs by alamarBlue assay; type: functional, cell-based
Calls of active or inactive are those of the source. No cut-off for these calls is given here.
// one of active, inactive, no free text

C/C=C(\C)C(=O)O[C@H]1[C@@H]2O[C@@H](CCCCC)CCCCCCC(=O)CCC(=O)OC[C@@H](O2)[C@@H](O)[C@@H]1OC(=O)/C=C/c1ccccc1; inactive
C/C=C(\C)C(=O)O[C@@H]1[C@@H](O)[C@@H]2O[C@H]3[C@H](O[C@@H](CCCCC)CCCCCCC(=O)CCC(=O)OC[C@@H](O2)[C@H]1OC(=O)/C=C/c1ccccc1)O[C@H](C)[C@H](OC(C)=O)[C@@H]3O; active
C/C=C(\C)C(=O)O[C@@H]1[C@@H](O)[C@@H]2OCCO[C@@H](CCCCC)CCCCCCC(=O)CCC(=O)OC[C@@H](O2)[C@H]1OC(=O)/C=C/c1ccccc1; inactive

// return assay outcome for "C/C=C(\C)C(=O)O[C@@H]1[C@@H](O)[C@@H]2O[C@@H](CCCCC)CCCCCCC(=O)CCC(=O)OC[C@@H](O2)[C@H]1OC(=O)/C=C/c1ccccc1"
inactive

Data provenance is ChEMBL document CHEMBL4184144.
